Biological target: AHR (Homo sapiens, UniProt P35869)
Construct: U87 MG glioblastoma cells (ATCC #HTB-14) endogenously expressing AHR; endogenous in cells; host or cells: U87 MG glioblastoma cells (ATCC #HTB-14)
Sequence (P35869 11-848): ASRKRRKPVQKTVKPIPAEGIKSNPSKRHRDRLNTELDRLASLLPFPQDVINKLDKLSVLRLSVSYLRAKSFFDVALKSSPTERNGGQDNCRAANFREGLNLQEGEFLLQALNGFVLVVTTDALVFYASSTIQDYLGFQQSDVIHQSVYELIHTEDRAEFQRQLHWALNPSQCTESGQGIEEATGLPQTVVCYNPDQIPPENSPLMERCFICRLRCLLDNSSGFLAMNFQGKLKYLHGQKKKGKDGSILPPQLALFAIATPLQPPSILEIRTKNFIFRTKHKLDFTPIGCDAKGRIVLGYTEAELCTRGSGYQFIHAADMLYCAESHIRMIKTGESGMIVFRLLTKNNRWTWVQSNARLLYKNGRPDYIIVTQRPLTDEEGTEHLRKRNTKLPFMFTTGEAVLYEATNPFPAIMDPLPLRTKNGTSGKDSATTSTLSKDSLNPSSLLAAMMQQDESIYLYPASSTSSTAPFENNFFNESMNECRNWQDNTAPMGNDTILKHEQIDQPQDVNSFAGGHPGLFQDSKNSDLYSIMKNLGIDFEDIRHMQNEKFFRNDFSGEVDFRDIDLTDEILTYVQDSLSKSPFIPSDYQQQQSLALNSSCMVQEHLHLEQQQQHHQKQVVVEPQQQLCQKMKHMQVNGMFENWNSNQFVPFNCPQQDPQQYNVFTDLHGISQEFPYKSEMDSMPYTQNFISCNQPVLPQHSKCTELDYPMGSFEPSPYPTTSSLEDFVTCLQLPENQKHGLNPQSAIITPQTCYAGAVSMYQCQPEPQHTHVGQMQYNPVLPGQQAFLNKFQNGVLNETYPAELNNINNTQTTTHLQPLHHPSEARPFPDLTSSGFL
Assay: In vitro assay 1: antagonism in human cell line (AHR transactivation, firefly luciferase reporter, kynurenic acid prestimulated)
Format: cell-based
Conditions: AHR Antagonism Human IC50 [M]
property measured: IC50 (M)

Recorded results for 4 compounds are shown here.
INSERT INTO results (compound, readout_value) VALUES
  ('O=C1NCCCC[C@@H]1Nc1nc2c(Br)cccc2c2nc(-c3ccc(Cl)cc3OC(F)F)nn12', '1.77e-08'),
  ('O=C1NCCCC[C@H]1Nc1nc2c(Cl)cccc2c2nc(-c3cccc(F)c3)nn12', '1.82e-08'),
  ('O=C1NCC[C@H]1Nc1nc2c(Br)cccc2c2nc(-c3ccccc3OC(F)(F)F)nn12', '8.15e-08'),
  ('O=C1NCCCC[C@H]1Nc1nc2c(Br)cccc2c2nc(-c3ccncc3)nn12', '3.35e-09');

I. CCSc1cccc2c1nc(N[C@@H]1CCCCNC1=O)n1nc(-c3cnn(C)c3)nc21
II. O=C1NCCCC[C@H]1Nc1nc2ccccc2c2nc(-c3ccc(F)cc3)nn12
Prompt line: // select label with min value of measured IC50 from [ I , II ] Lab log: write the label of the selected item as the result.
Response line: II
(II: 1.62e-10 M, I: 2.1e-08 M)

1. COc1ccc(-c2nc3c4cccc(SC)c4nc(N[C@@H]4CCCCNC4=O)n3n2)cc1
2. COc1cccc(-c2nc3c4ccccc4nc(N[C@@H](CCCCNC(=O)OC(C)(C)C)C(N)=O)n3n2)c1
Prompt line: Please let me know which one, 1 or 2 , has a lower measured IC50 value. // respond with label for picked entry
Response line: 1
(1: 1.64e-08 M, 2: 3.48e-06 M)

P. Cc1ccccc1-c1nc2c3ccccc3nc(NC3CCNC3=O)n2n1 (stereo not drawn) [Example 43]
Q. CCn1cc(-c2nc3c4cccc(C(F)(F)F)c4nc(N[C@@H]4CCCCNC4=O)n3n2)cn1
R. O=C1NCCCC[C@H]1Nc1nc2ccccc2c2nc(-c3cnn(CCO)c3)nn12
Prompt line: Rank items: key IC50, increasing. Provide the labels, sequenced as the question asks.
Response line: Q, P, R

a. Cc1sccc1-c1nc2c3ccccc3nc(N[C@@H]3CCCNC3=O)n2n1
b. O=C1NCCCC[C@H]1Nc1nc2cccc(Cl)c2c2nc(-c3cccc(F)c3)nn12
Prompt line: Hi, I'm comparing two records. Which one has the lower IC50, a or b ? Mark your answer with the label of the selected entry.
Response line: b
(b: 6.39e-09 M, a: 7.76e-08 M)
